target: SARS-CoV-2 Papain-Like Protease (PLpro) (Severe acute respiratory syndrome coronavirus 2 (2019-nCoV) (SARS-CoV-2), UniProt P0DTD1); assay: biochemical; details: SARS-CoV-2 PLpro enzymatic fluorescence assay; read-out: PLpro IC50
Give measured IC50 for each item. Keep answers brief.

Q: May I ask what IC50 has been recorded for Cc1ccc(OCCNCc2ccccc2)cc1C(=O)NC1(c2cccc3ccccc23)CC1 ?
Result: < 0.1 µM

Q: May I ask what IC50 has been recorded for Cc1ccc(OCC2CCCN2C)cc1C(=O)NC1(c2cccc3ccccc23)CC1 (stereo not drawn) ?
Result: < 0.1 µM

Q: May I ask what IC50 has been recorded for Cc1ccc(OCC2COCCN2C)cc1C(=O)NC1(c2cccc3ccccc23)CC1 (stereo not drawn) ?
Result: 0.1 to 1 µM

Q: May I ask what IC50 has been recorded for CC(c1cccc2ccccc12)N1CC(CC(=O)NCc2cccc(F)c2)C1 (stereo not drawn) ?
Result: > 5 µM

Q: May I ask what IC50 has been recorded for Cc1ccc(OC[C@@H]2CCN2C)cc1C(=O)NC1(c2cc(O)nc3ccccc23)CC1 ?
Result: < 0.1 µM

Q: May I ask what IC50 has been recorded for COC(=O)CCc1ccc(C)c(C(=O)NC2(c3cccc4ccccc34)CC2)c1 ?
Result: 0.1 to 1 µM

Q: May I ask what IC50 has been recorded for Cc1ccc(OCCN(C)C)cc1C(=O)NC1(c2cccc(Br)c2C)CC1 ?
Result: 0.1 to 1 µM

Q: May I ask what IC50 has been recorded for Cc1ccc(OCCN(C)C)cc1C(=O)NC1(c2ccc(Br)cc2)CC1 ?
Result: > 5 µM

Q: May I ask what IC50 has been recorded for Cc1cc2ccn(CC3COC3)c2cc1C(=O)NC1(c2cccc3ccccc23)CC1 ?
Result: 0.1 to 1 µM

Q: May I ask what IC50 has been recorded for Cc1ccc(Nc2nccs2)cc1C(=O)N[C@H](C)c1cccc2ccccc12 ?
Result: > 5 µM

Q: May I ask what IC50 has been recorded for Cc1ccc(OC[C@@H]2CCN2)cc1C(=O)NC1(c2cccc3ncccc23)CC1 ?
Result: < 0.1 µM

Q: May I ask what IC50 has been recorded for Cc1ccc(OCCN(C)C)cc1C(=O)NC1(c2ccccc2C(F)(F)F)CC1 ?
Result: 0.1 to 1 µM

Q: May I ask what IC50 has been recorded for Cc1ccc(C2CCNC2)cc1C(=O)NC1(c2cccc3ccccc23)CC1 (stereo not drawn) ?
Result: < 0.1 µM

Q: May I ask what IC50 has been recorded for Cc1ccc(NCCN(C)C)cc1C(=O)NC1(c2cccc3ccccc23)CC1 ?
Result: < 0.1 µM

Q: May I ask what IC50 has been recorded for Cc1cc2cc(CN)[nH]c2cc1C(=O)NC(C)(C)c1cccc2ccccc12 ?
Result: > 5 µM

Q: May I ask what IC50 has been recorded for Cc1ccc(OCCN(C)C)cc1C(=O)NC1(c2ccc(O)cc2)CC1 ?
Result: > 5 µM

Q: May I ask what IC50 has been recorded for Cc1ccc(OCC2CCN2Cc2ccccc2)cc1C(=O)NC1(c2cccc3ccccc23)CC1 (stereo not drawn) ?
Result: < 0.1 µM

Q: May I ask what IC50 has been recorded for Cc1ccc(OC[C@@H]2CCN2C)cc1C(=O)NC1(c2cc(N)cc3ncccc23)CC1 ?
Result: < 0.1 µM

Q: May I ask what IC50 has been recorded for Cc1ccc(OCCN(C)C)cc1C(=O)NC1(c2cn(-c3ccccc3)c3ccccc23)CC1 ?
Result: < 0.1 µM

Q: May I ask what IC50 has been recorded for COc1cc(C2(NC(=O)c3cc(OCCN)ccc3C)CC2)c2ccccc2c1 ?
Result: < 0.1 µM

Q: May I ask what IC50 has been recorded for Cc1ccc(OCCN(C)C)cc1C(=O)NC1(c2cn(C)c3ccccc23)CC1 ?
Result: 0.1 to 1 µM
